procedure.summary: collision cross section of modified peptide (TIMS, N2, iRT-aligned); higher = larger / more extended gas-phase ion
condition.details: charge state: 3; modification: Malonyl
What collision cross section was measured for each of the following?
One number for each entry, in Å².

In the examples that follow, each entry is paired with its recorded collision cross section.
LQEKVESAQSEQK [_LQEK(Malonyl)VESAQSEQK_] :: 504.23
ITESVAETAQTIKK [_ITESVAETAQTIK(Malonyl)K_] :: 509.94
LGVATVAKGVCGACK [_LGVATVAK(Malonyl)GVCGACK_] :: 487.74

Field: next sequence
Ask: Dear colleague, please send me the reported collision cross section for DESFLGKLGGTLAR [_DESFLGK(Malonyl)LGGTLAR_] when you can.
Reply: 487.95

* * *

procedure.summary: collision cross section of unmodified peptide (TIMS, N2, iRT-aligned); higher = larger / more extended gas-phase ion
condition.details: charge state: 3
endpoint.name: collision cross section (Å²)
One number for each entry, in Å².

Reference set (6 entries):
AVPSSPAGSAARGR :: 489.36
TELLPGDRDNLAIQTR :: 506.52
GIGRGTVQALHATGAR :: 501.79
IPAASAAAMNLASAR :: 496.43
RFGGPVHHQAQR :: 495.72
VDVEVPDVSLEGPEGKLK :: 514.03

Provide collision cross section values for the following items, in order.
1. VLDSGAPIKIPVGPETLGR
2. AAQASDLEKIHLDEK
3. LLIVSTTPYSEKDTK
4. PANEKATDDYHYEK

Reply:
[510.9, 506, 510.79, 493.57]

// for each sequence in input: emit collision cross section
1. GTITVSAQELKDNR
2. LQEKVESAQSEQK
3. GQDSTIAASEQQVAAR

Reply:
507.47
487.5
495.1

* * *

procedure.summary: collision cross section of modified peptide (TIMS, N2, iRT-aligned); higher = larger / more extended gas-phase ion
condition.details: charge state: 2; modification: Butyryl
endpoint.name: collision cross section (Å²)
Answers are plain numbers, in Å².

// worked examples, collision cross section included
SSFAYKDQNENR [_SSFAYK(Butyryl)DQNENR_] :: 402.63
SNEEGSEEKGPEVR [_SNEEGSEEK(Butyryl)GPEVR_] :: 407.11
LTEKELAEAASK [_LTEK(Butyryl)ELAEAASK_] :: 394.05
LLEQKTQESQK [_LLEQK(Butyryl)TQESQK_] :: 398.26

We next turn to a different sequence, shown below.
Ask: Specify measured collision cross section for TLQKQSVVYGGK [_TLQK(Butyryl)QSVVYGGK_] .
Reply: 396.52

* * *

Answer each item with its documented collision cross section.
procedure.summary: collision cross section of modified peptide (TIMS, N2, iRT-aligned); higher = larger / more extended gas-phase ion
condition.details: charge state: 3; modification: Methyl (R)
Give bare numbers, in Å².

Examples with answers:
RFGGPVHHQAQR [_R(Methyl (R))FGGPVHHQAQR_] :: 496.52
GGPGGELPRGPQAGLGPR [_GGPGGELPR(Methyl (R))GPQAGLGPR_] :: 497.33
PRTPTAPAVNLAGAR [_PR(Methyl (R))TPTAPAVNLAGAR_] :: 486.43
VEPGSLESSPGLGRGR [_VEPGSLESSPGLGR(Methyl (R))GR_] :: 499.14
AVPSSPAGSAARGR [_AVPSSPAGSAAR(Methyl (R))GR_] :: 492.48
VEPIHAVVLPRGK [_VEPIHAVVLPR(Methyl (R))GK_] :: 489.93

Below is a list of sequences. For each, state its recorded collision cross section.
1. AAYQAAIRGVGSAQSR [_AAYQAAIR(Methyl (R))GVGSAQSR_]
2. SFDEVEGVFGRGGGR [_SFDEVEGVFGR(Methyl (R))GGGR_]
3. GAPGGRGAQLSVPSPAR [_GAPGGR(Methyl (R))GAQLSVPSPAR_]
4. GATVTRGVPPPPTVR [_GATVTR(Methyl (R))GVPPPPTVR_]

Reply:
510.48
513.29
494.35
512.38

Entry source: the supplement of paper PMC10598134
